tested-on: KDM5B (PLU-1) (Homo sapiens, UniProt Q9UGL1)
Construct: BRIC; 1-809; E. coli; host or cells: E. coli
Sequence (Q9UGL1 1-809): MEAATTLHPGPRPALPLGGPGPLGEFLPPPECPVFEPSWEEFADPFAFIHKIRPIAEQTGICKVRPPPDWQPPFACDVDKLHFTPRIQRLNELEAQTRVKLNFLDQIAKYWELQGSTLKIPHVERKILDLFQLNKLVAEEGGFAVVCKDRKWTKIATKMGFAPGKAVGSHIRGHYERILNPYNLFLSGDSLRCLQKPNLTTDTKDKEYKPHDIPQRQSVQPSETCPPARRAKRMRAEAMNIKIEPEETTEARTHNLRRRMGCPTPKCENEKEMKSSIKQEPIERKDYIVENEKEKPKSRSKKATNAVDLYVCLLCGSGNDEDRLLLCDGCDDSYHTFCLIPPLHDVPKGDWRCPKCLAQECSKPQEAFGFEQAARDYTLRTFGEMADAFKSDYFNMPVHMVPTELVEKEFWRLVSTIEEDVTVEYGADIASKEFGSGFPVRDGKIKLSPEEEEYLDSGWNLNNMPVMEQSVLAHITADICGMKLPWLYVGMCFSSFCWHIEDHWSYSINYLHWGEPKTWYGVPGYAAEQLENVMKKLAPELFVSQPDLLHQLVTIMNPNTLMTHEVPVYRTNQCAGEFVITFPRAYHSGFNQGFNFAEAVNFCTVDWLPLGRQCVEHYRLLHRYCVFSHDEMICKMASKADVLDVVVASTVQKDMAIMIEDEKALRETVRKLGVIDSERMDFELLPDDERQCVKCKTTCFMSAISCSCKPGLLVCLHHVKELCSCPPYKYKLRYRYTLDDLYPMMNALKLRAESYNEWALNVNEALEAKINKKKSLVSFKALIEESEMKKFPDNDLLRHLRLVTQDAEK
method-description: Histone lysine demethylase AlphaLISA assay, KDM5B
Assay type: biochemical
For each record, write down the corresponding IC50.
Give your result in nM as a bare value.

INPUT: Which measured IC50 belongs to `O=C(O)c1cc(CO)nc(CNCc2nc(CO)cn2Cc2ccc(F)cc2)c1` , tested on KDM5B (PLU-1) (Homo sapiens, UniProt Q9UGL1)?
OUTPUT: 246

INPUT: Which measured IC50 belongs to `C=CCn1ccnc1CNCc1cc(C(=O)O)cc(C)n1` , tested on KDM5B (PLU-1) (Homo sapiens, UniProt Q9UGL1)?
OUTPUT: 431

INPUT: Which measured IC50 belongs to `Cc1cc(C(=O)O)cc(CNCc2nccn2Cc2cccc(C#N)c2)n1` , tested on KDM5B (PLU-1) (Homo sapiens, UniProt Q9UGL1)?
OUTPUT: 4080

###

tested-on: KDM5B (PLU-1) (Homo sapiens)
Construct: BRIC; 1-809; E. coli; host or cells: E. coli
method-description: Histone lysine demethylase AlphaLISA assay, KDM5B
Type: biochemical
value-kind: IC50 (µM)
Give your result in µM as a bare value.

INPUT: I'd like to know its IC50. The molecule in question is `Cc1cc(C(=O)O)cc(CNCc2nnc(C3CC3)n2Cc2ccc(F)cc2)n1`
OUTPUT: 4.62

INPUT: I'd like to know its IC50. The molecule in question is `O=Cc1cn(Cc2ccc(F)cc2)c(CNCc2cc(C(=O)O)cc(CO)n2)n1`
OUTPUT: 1.07

INPUT: I'd like to know its IC50. The molecule in question is `O=C(O)c1cc(CO)nc(CNCc2nccn2Cc2ccc(F)cc2)c1`
OUTPUT: 0.021

INPUT: I'd like to know its IC50. The molecule in question is `Cc1nnc(CNCc2cc(C(=O)O)cc(CO)n2)n1CCCc1ccccc1`
OUTPUT: 0.151

INPUT: I'd like to know its IC50. The molecule in question is `Cc1cc(C(=O)O)cc(CNCc2nccn2CC(C)C)n1`
OUTPUT: 1.99

INPUT: I'd like to know its IC50. The molecule in question is `Cc1nc(CNCc2cc(C(=O)O)cc(CO)n2)n(Cc2ccc(F)cc2)c1C`
OUTPUT: 0.755

INPUT: I'd like to know its IC50. The molecule in question is `O=C(O)c1cc(CO)nc(CNCc2nncn2CCCc2ccccc2)c1`
OUTPUT: 0.641

INPUT: I'd like to know its IC50. The molecule in question is `O=C(O)c1cc(CO)nc(CNCc2nnc(-c3ccccc3)n2CCCc2ccccc2)c1`
OUTPUT: 8.41

INPUT: I'd like to know its IC50. The molecule in question is `Cc1cc(C(=O)O)cc(CNCc2nccn2CCc2cncnc2)n1`
OUTPUT: 3.02

INPUT: I'd like to know its IC50. The molecule in question is `CC#Cc1cc(C(=O)O)cc(CNCc2nccn2Cc2ccc(F)cc2)n1`
OUTPUT: 3.35

INPUT: I'd like to know its IC50. The molecule in question is `C=Cc1cc(C(=O)O)cc(CNCc2nccn2Cc2ccc(F)cc2)n1`
OUTPUT: 3.76

INPUT: I'd like to know its IC50. The molecule in question is `CCc1cnc(CNCc2cc(C(=O)O)cc(CO)n2)n1Cc1ccc(F)cc1`
OUTPUT: 0.635

INPUT: I'd like to know its IC50. The molecule in question is CCC(C)c1cnc(CNCc2cc(C(=O)O)cc(C)n2)n1Cc1ccc(F)cc1 (stereo not drawn)
OUTPUT: 0.714

INPUT: I'd like to know its IC50. The molecule in question is `Cc1nnc(CNCc2cc(C(=O)O)cc(CO)n2)n1CCCC(C)C`
OUTPUT: 0.559

INPUT: I'd like to know its IC50. The molecule in question is `CC(=O)c1ccc(Cn2ccnc2CNCc2cc(C(=O)O)cc(C)n2)cc1`
OUTPUT: 0.262

INPUT: I'd like to know its IC50. The molecule in question is `O=C(O)c1cc(CO)nc(CNCc2nncn2CCc2cc(Cl)cc(Cl)c2)c1`
OUTPUT: 1.78

INPUT: I'd like to know its IC50. The molecule in question is `O=C(O)c1cc(CO)nc(CNCc2nncn2Cc2ccc(F)cc2)c1`
OUTPUT: 0.231

INPUT: I'd like to know its IC50. The molecule in question is CCCC(C)c1cnc(CNCc2cc(C(=O)O)cc(C)n2)n1Cc1ccc(F)cc1 (stereo not drawn)
OUTPUT: 1.28

Where do the numbers come from? From patent US9802941B2.
